assay: Cmax in male Kunming mouse at 30 mg/kg, ip measured up to 8 hrs by LC-MS/MS analysis; assay type: ADME, organism-based; conditions: in vivo
readout.name: Cmax (ng/mL)

structure.string: O=C(NCc1cc(Cl)ccc1F)c1cn(-c2ccccc2)c2cc(N3CCNCC3)c(F)cc2c1=O
value.units: ng/mL
observed.result: 342
